molecular target: T1, Ala mutant of TA0096, SEQ ID NO: 34; test: ELISA, alanine scan (position 347)
T1 peptide: EENMDDQAMQDEMEIGY
recorded.metric: binding result

binder	recorded.result
E9 (antibody, V domains shown, Chicken variable regions in a mouse chimeric antibody (IgG1); also called anti-PAD4 antibody E9) VH: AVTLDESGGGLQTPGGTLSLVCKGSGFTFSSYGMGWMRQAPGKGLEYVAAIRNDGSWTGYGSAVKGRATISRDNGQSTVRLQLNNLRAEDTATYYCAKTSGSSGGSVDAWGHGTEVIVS VL: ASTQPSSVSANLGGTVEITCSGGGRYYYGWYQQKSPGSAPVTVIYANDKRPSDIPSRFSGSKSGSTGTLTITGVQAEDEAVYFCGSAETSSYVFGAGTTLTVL	no binding
G9 (antibody, V domains shown, Chicken variable regions in a mouse chimeric antibody (IgG1); also called anti-PAD4 antibody G9) VH: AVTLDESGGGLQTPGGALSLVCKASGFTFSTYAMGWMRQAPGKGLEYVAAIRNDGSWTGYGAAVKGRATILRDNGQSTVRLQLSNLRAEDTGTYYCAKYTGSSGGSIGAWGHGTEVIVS VL: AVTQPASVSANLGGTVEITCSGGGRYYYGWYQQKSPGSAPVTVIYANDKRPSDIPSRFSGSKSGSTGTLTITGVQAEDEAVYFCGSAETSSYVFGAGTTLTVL	no binding
A11 (antibody, V domains shown, Chicken variable regions in a mouse chimeric antibody (IgG1); also called anti-PAD4 antibody A11) VH: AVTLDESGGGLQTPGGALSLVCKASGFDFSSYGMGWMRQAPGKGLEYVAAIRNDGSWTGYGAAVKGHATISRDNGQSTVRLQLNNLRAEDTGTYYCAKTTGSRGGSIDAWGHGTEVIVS VL: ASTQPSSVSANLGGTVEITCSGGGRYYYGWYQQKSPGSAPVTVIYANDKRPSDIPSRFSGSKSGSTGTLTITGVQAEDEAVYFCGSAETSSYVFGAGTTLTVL	no binding
